System: KM12 colon
Test: NCI tumour cell line growth inhibition, 48 h
I'd be grateful if you could share measured TGI for these entries.

Study these solved cases before continuing.
{"columns": ["compound", "TGI"],
 "data": [
  ["CN(C)c1ccc(/C=N/NC(=O)c2cnc3ccccc3c2)cc1", "> 100 µM"],
  ["N#CC(CC(=O)O)=C(c1ccccc1)c1ccccc1", "> 100 µM"],
  ["NC(C(=O)O)c1ccc(C(=O)O)cc1 (configuration not stated)", "> 100 µM"],
  ["COc1ccc2oc3c(ccc[n+]3C)c(=O)c2c1", "> 100 µM"],
  ["CCCC(=O)Oc1cc(OC(=O)CCC)c2c(C)cc(=O)oc2c1", "> 100 µM"],
  ["CCOC(=O)c1c(CN2CCOCC2)n(Cc2ccccc2)c2c1cc(O)c1nc(C)c(C)nc12", "> 100 µM"]
]}

Record TGI for all entries; do not skip any.
1. CC1CCC2[C@@H](C)COC3O[C@]4(C)CCC1C32OO4 (some centres not stated)
2. CCOc1cc[n+](C(=C=[N-])C#N)cc1
3. CC1CC2(C)CC(=O)C1C1C(=O)N(CCN3CCOCC3)C(=O)C12 (configuration not stated)
4. COC(=O)c1ccccc1Nc1ccccc1C(=O)OC
5. Cc1nc2c(s/c(=N\N)n2-c2ccccc2)c(=O)n1C
6. CC(C)[Si](OC1=CCC[C@H]2NC(=O)[C@@H](Cc3ccc([N+](=O)[O-])cc3)[C@@]12C)(C(C)C)C(C)C

Resp:
["> 100 µM", "> 100 µM", "> 100 µM", "> 100 µM", "> 100 µM", "13.1 µM"]

Please supply TGI for each of the following items, keeping them in order.
1. Nc1ccc2c(c1)S(=O)(=O)c1cc(N)ccc1-2
2. COn1cc(C(=O)N=C(SC)SC)c2ccccc21
3. COC1=CC(=O)C2C(C1=O)[C@@H]1c3ccccc3OC[C@H]21 (some centres not stated)
4. COc1ccc(/C=C/C(=O)/C=C(/C=C/c2ccc(OC)c(OC)c2OC)OB(F)F)c(OC)c1OC
5. CN1CCN(Cc2ccc(NC(=O)c3cncc(C#Cc4ncc5ccccn45)c3)cc2C(F)(F)F)CC1
6. CC1CC/C(=C\c2ccc(F)cc2)C2=C1C(c1ccc(F)cc1)n1c(s/c(=C\c3ccc(Cl)cc3)c1=O)=N2 (configuration not stated)
7. N#Cc1c(Nc2ccccc2)[n+]([O-])c2ccc(Cl)cc2[n+]1[O-]

Resp:
1: > 100 µM; 2: 52.7 µM; 3: > 100 µM; 4: 5.08 µM; 5: 2.9 µM; 6: > 100 µM; 7: > 100 µM

// each compound listed below needs its TGI
1. COc1cc[nH]c1/C=C1\C(=O)Nc2ccc([N+](=O)[O-])c(N3CC[C@@H](O)C3)c21
2. O=C1/C(=C/c2cccc(F)c2)CN(C(=O)C(Cl)Cl)C/C1=C\c1cccc(F)c1
3. Cc1cccc2c(=O)c3c(O)cc4c(c3n(C)c12)C=CC(C)(C)O4

Resp:
1. 2.22 µM
2. 0.476 µM
3. > 100 µM

###

Test system: NCI/ADR-RES ovarian
Assay: NCI tumour cell line growth inhibition, 48 h; in the data active means GI50 below about 0.43 µM; inactive means the rest
The reply should name one outcome from active, inactive

Req: What call does the record list for "COc1ccc(-c2c(C#N)cnc(N)c2-c2nc3cc(C)c(C)cc3[nH]2)cc1" ?
Resp: inactive

Req: Test call for this compound, please: "O=C1/C(=C/c2cccc(F)c2)CN(C(=O)C(Cl)Cl)C/C1=C\c1cccc(F)c1"
Resp: active

Req: Recorded test outcome, item "CC(=O)Nc1nc(C)c(-c2cc3c(c(S(C)(=O)=O)c2)C(=O)N([C@@H](C)C2CC2)C3)s1"
Resp: inactive

Req: Per the records of this test, what outcome belongs to "CN1C(=O)C(C)(C)Oc2c(-c3cn(C)c(=O)c4[nH]ccc34)cc(S(C)(=O)=O)cc21" ?
Resp: inactive
